// MIC of antibiotic in combination lookup, one value per entry
# System: clinical antibiotic resistant isolates of MRSA
# Experiment Description: Checkerboard resistance breaking by SP-BIM 13
# Format: cell-based, Staphylococcus aureus
# Condition Parameters: MRSA strain 10132; with SP-BIM 13 at rescue concentration
The reply should be a number in µg/mL, with the unit left off.

Known MIC of antibiotic in combination results, listed for orientation:
Given the compound C[C@H]1c2cccc(O)c2C(=O)C2=C(O)[C@]3(O)C(=O)C(C(N)=O)=C(O)[C@@H](N(C)C)[C@@H]3[C@@H](O)[C@@H]21 [Doxycycline, doxycycline] , what is its reported MIC of antibiotic in combination?
0.5

Given the compound CC1(C)S[C@@H]2[C@H](NC(=O)[C@H](N)c3ccccc3)C(=O)N2[C@H]1C(=O)O [Ampicillin, ampicillin] , what is its reported MIC of antibiotic in combination?
0.5

Given the compound [H]/N=C(/N)N[C@H]1[C@H](O)[C@@H](O)[C@H](O[C@@H]2O[C@@H](C)[C@](O)(C=O)[C@H]2O[C@@H]2O[C@@H](CO)[C@H](O)[C@@H](O)[C@@H]2NC)[C@@H](N/C(N)=N\[H])[C@@H]1O [Streptomycin, streptomycin] , what is its reported MIC of antibiotic in combination?
0.5

# ---- query compound ----
Given the compound CC[C@H]1OC(=O)[C@H](C)[C@@H](O[C@H]2C[C@@](C)(OC)[C@@H](O)[C@H](C)O2)[C@H](C)[C@@H](O[C@@H]2O[C@H](C)C[C@H](N(C)C)[C@H]2O)[C@](C)(O)C[C@@H](C)C(=O)[C@H](C)[C@@H](O)[C@]1(C)O [Erythromycin, erythromycin] , what is its reported MIC of antibiotic in combination?
1

###

// FIC antibiotic lookup, one value per entry
# System: clinical antibiotic resistant isolates of MRSA
# Experiment Description: Checkerboard resistance breaking by SP-BIM 13
# Format: cell-based, Staphylococcus aureus
# Condition Parameters: MRSA strain 5872; combination with SP-BIM 13
Respond using a number only.

Known FIC antibiotic results, listed for orientation:
Given the compound [H]/N=C(/N)N[C@H]1[C@H](O)[C@@H](O)[C@H](O[C@@H]2O[C@@H](C)[C@](O)(C=O)[C@H]2O[C@@H]2O[C@@H](CO)[C@H](O)[C@@H](O)[C@@H]2NC)[C@@H](N/C(N)=N\[H])[C@@H]1O , what is its reported FIC antibiotic?
0.004

Given the compound CC1(C)S[C@@H]2[C@H](NC(=O)[C@H](N)c3ccccc3)C(=O)N2[C@H]1C(=O)O , what is its reported FIC antibiotic?
0.002

Given the compound C[C@H]1c2cccc(O)c2C(=O)C2=C(O)[C@]3(O)C(=O)C(C(N)=O)=C(O)[C@@H](N(C)C)[C@@H]3[C@@H](O)[C@@H]21 , what is its reported FIC antibiotic?
0.125

Next:
Given the compound CC[C@H]1OC(=O)[C@H](C)[C@@H](O[C@H]2C[C@@](C)(OC)[C@@H](O)[C@H](C)O2)[C@H](C)[C@@H](O[C@@H]2O[C@H](C)C[C@H](N(C)C)[C@H]2O)[C@](C)(O)C[C@@H](C)C(=O)[C@H](C)[C@@H](O)[C@]1(C)O , what is its reported FIC antibiotic?
0.016

###

// MIC of antibiotic, No Compound lookup, one value per entry
# Tested on: Klebsiella pneumoniae
# Experiment Description: Adjuvant broth microdilution (antibiotic MIC with SP-BIM at 50 μg/mL)
# Type: cell-based
# Condition Parameters: Klebsiella pneumonia; antibiotic alone, no SP-BIM

Known MIC of antibiotic, No Compound results, listed for orientation:
Given the molecule CC1(C)S[C@@H]2[C@H](NC(=O)[C@H](N)c3ccccc3)C(=O)N2[C@H]1C(=O)O , what is its reported MIC of antibiotic, No Compound?
>250 µg/mL

Given the molecule O=C(N[C@H](CO)[C@H](O)c1ccc([N+](=O)[O-])cc1)C(Cl)Cl , what is its reported MIC of antibiotic, No Compound?
>250 µg/mL

Given the molecule CC[C@H]1OC(=O)[C@H](C)[C@@H](O[C@H]2C[C@@](C)(OC)[C@@H](O)[C@H](C)O2)[C@H](C)[C@@H](O[C@@H]2O[C@H](C)C[C@H](N(C)C)[C@H]2O)[C@](C)(O)C[C@@H](C)C(=O)[C@H](C)[C@@H](O)[C@]1(C)O , what is its reported MIC of antibiotic, No Compound?
>250 µg/mL

# ---- query molecule ----
Given the molecule C[C@H]1c2cccc(O)c2C(=O)C2=C(O)[C@]3(O)C(=O)C(C(N)=O)=C(O)[C@@H](N(C)C)[C@@H]3[C@@H](O)[C@@H]21 , what is its reported MIC of antibiotic, No Compound?
8 µg/mL

###

// Σ FIC lookup, one value per entry
# System: Escherichia coli
# Experiment Description: Checkerboard synergy (FICI) of antibiotics with SP-BIM
# Condition Parameters: antibiotic + SP-BIM 9

Given the compound CC[C@H]1OC(=O)[C@H](C)[C@@H](O[C@H]2C[C@@](C)(OC)[C@@H](O)[C@H](C)O2)[C@H](C)[C@@H](O[C@@H]2O[C@H](C)C[C@H](N(C)C)[C@H]2O)[C@](C)(O)C[C@@H](C)C(=O)[C@H](C)[C@@H](O)[C@]1(C)O , what is its reported Σ FIC?
<2.0

Given the compound CC1=C(C(=O)O)N2C(=O)[C@@H](NC(=O)[C@H](N)c3ccccc3)[C@H]2SC1 , what is its reported Σ FIC?
<0.6

Given the compound C[C@H]1c2cccc(O)c2C(=O)C2=C(O)[C@]3(O)C(=O)C(C(N)=O)=C(O)[C@@H](N(C)C)[C@@H]3[C@@H](O)[C@@H]21 , what is its reported Σ FIC?
<1.0

Given the compound COc1cc(Cc2cnc(N)nc2N)cc(OC)c1OC , what is its reported Σ FIC?
<4.1

Given the compound O=C(O)c1cn(C2CC2)c2cc(N3CCNCC3)c(F)cc2c1=O , what is its reported Σ FIC?
<0.4

Next:
Given the compound [H]/N=C(/N)N[C@H]1[C@H](O)[C@@H](O)[C@H](O[C@@H]2O[C@@H](C)[C@](O)(C=O)[C@H]2O[C@@H]2O[C@@H](CO)[C@H](O)[C@@H](O)[C@@H]2NC)[C@@H](N/C(N)=N\[H])[C@@H]1O , what is its reported Σ FIC?
<1.1

Given the compound C[C@H]1[C@H](NC(=O)/C(=N\OC(C)(C)C(=O)O)c2csc(N)n2)C(=O)N1S(=O)(=O)O , what is its reported Σ FIC?
<0.8

Given the compound CC1(C)S[C@@H]2[C@H](NC(=O)[C@H](N)c3ccccc3)C(=O)N2[C@H]1C(=O)O , what is its reported Σ FIC?
<0.1

###

// Σ FIC lookup, one value per entry
# Test system: Klebsiella pneumoniae
# Experiment Description: Checkerboard synergy (FICI) of antibiotics with SP-BIM
# Format: cell-based
# Condition Parameters: antibiotic + SP-BIM 13

Known Σ FIC results, listed for orientation:
Given the compound C[C@H]1c2cccc(O)c2C(=O)C2=C(O)[C@]3(O)C(=O)C(C(N)=O)=C(O)[C@@H](N(C)C)[C@@H]3[C@@H](O)[C@@H]21 [Doxycycline, doxycycline] , what is its reported Σ FIC?
<0.4

Given the compound [H]/N=C(/N)N[C@H]1[C@H](O)[C@@H](O)[C@H](O[C@@H]2O[C@@H](C)[C@](O)(C=O)[C@H]2O[C@@H]2O[C@@H](CO)[C@H](O)[C@@H](O)[C@@H]2NC)[C@@H](N/C(N)=N\[H])[C@@H]1O [Streptomycin, streptomycin] , what is its reported Σ FIC?
<0.3

# ---- query compound ----
Given the compound CC1=C(C(=O)O)N2C(=O)[C@@H](NC(=O)[C@H](N)c3ccccc3)[C@H]2SC1 [Cephalexin, cefalexin] , what is its reported Σ FIC?
<0.5

###

# Test system: clinical strains of MRSA
# Experiment Description: Kirby Bauer disc diffusion susceptibility profile
# Assay type: cell-based, Staphylococcus aureus
# Condition Parameters: MRSA strain 7698; zones vs EUCAST breakpoints (Table 30)
Assay Readout: Interpretive standard (resistant/susceptible)

Known Interpretive standard (resistant/susceptible) results, listed for orientation:
Given the compound C[C@H]1c2cccc(O)c2C(=O)C2=C(O)[C@]3(O)C(=O)C(C(N)=O)=C(O)[C@@H](N(C)C)[C@@H]3[C@@H](O)[C@@H]21 , what is its reported Interpretive standard (resistant/susceptible)?
R

Given the compound O=C(N[C@H](CO)[C@H](O)c1ccc([N+](=O)[O-])cc1)C(Cl)Cl , what is its reported Interpretive standard (resistant/susceptible)?
S

Given the compound CC[C@H]1OC(=O)[C@H](C)[C@@H](O[C@H]2C[C@@](C)(OC)[C@@H](O)[C@H](C)O2)[C@H](C)[C@@H](O[C@@H]2O[C@H](C)C[C@H](N(C)C)[C@H]2O)[C@](C)(O)C[C@@H](C)C(=O)[C@H](C)[C@@H](O)[C@]1(C)O , what is its reported Interpretive standard (resistant/susceptible)?
S

Given the compound NC[C@H]1O[C@H](O[C@H]2[C@H](O)[C@@H](O[C@H]3O[C@H](CO)[C@@H](O)[C@H](N)[C@H]3O)[C@H](N)C[C@@H]2N)[C@H](O)[C@@H](O)[C@@H]1O , what is its reported Interpretive standard (resistant/susceptible)?
R

Given the compound [H]/N=C(/N)N[C@H]1[C@H](O)[C@@H](O)[C@H](O[C@@H]2O[C@@H](C)[C@](O)(C=O)[C@H]2O[C@@H]2O[C@@H](CO)[C@H](O)[C@@H](O)[C@@H]2NC)[C@@H](N/C(N)=N\[H])[C@@H]1O , what is its reported Interpretive standard (resistant/susceptible)?
R

# ---- query compound ----
Given the compound CC1(C)S[C@@H]2[C@H](NC(=O)[C@H](N)c3ccccc3)C(=O)N2[C@H]1C(=O)O , what is its reported Interpretive standard (resistant/susceptible)?
R
